Data origin: PubChem BioAssay AID1918946

Tested on: 885512-296-R-J2-PDC complex spheroid viability;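 note: spheroids exposed to agents for 7 days before viability read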
assay.name: Anticancer human tumor 885512-296-R-J2-PDC patient-derived breast carcinoma cell line growth inhibition
condition.notes: second compound 1 µM; first compound 0.00949 µM; active compounds read low
endpoint.name: viability, T/C

In the examples that follow, each entry is paired with its recorded viability, T/C.
[
  {
    "compound": "Nc1ccccc1NC(=O)c1ccc(CNC(=O)OCc2cccnc2)cc1 + NC1CC1c1ccc(-c2cccc(O)c2)cc1",
    "system.tested": "885512-296-R-J2-PDC complex spheroid viability",
    "viability, T/C": "102%"
  },
  {
    "compound": "CCN(c1cc(-c2ccc(CN3CCOCC3)cc2)cc(C(=O)NCc2c(C)cc(C)[nH]c2=O)c1C)C1CCOCC1 + NC1CCC(NC2CC2c2ccccc2)CC1",
    "system.tested": "885512-296-R-J2-PDC complex spheroid viability",
    "viability, T/C": "135%"
  },
  {
    "compound": "CCc1c2c(nc3ccc(O)cc13)-c1cc3c(c(=O)n1C2)COC(=O)[C@]3(O)CC + NC1CC1c1ccc(-c2cccc(O)c2)cc1",
    "system.tested": "885512-296-R-J2-PDC complex spheroid viability",
    "viability, T/C": "1.46%"
  }
]

# per-item lookup of viability, T/C; items listed below
1. Nc1ncn(C2CC(O)C(CO)S2)c(=O)n1 (configuration not stated) + NC1CCC(NC2CC2c2ccccc2)CC1
2. COc1cc(C2c3cc4c(cc3C(OC3OC5COC(C)OC5C(O)C3O)C3COC(=O)C23)OCO4)cc(OC)c1O (configuration not stated) + NC1CCC(NC2CC2c2ccccc2)CC1
3. O=C(C=Cc1cccc(S(=O)(=O)Nc2ccccc2)c1)NO + NC1CCC(NC2CC2c2ccccc2)CC1
4. CCN(c1cc(-c2ccc(CN3CCOCC3)cc2)cc(C(=O)NCc2c(C)cc(C)[nH]c2=O)c1C)C1CCOCC1 + NC1CC1c1ccc(-c2cccc(O)c2)cc1

Ans.
1: 32.8%; 2: 104%; 3: 108%; 4: 120%
